Experiment: Aqueous solubility of dronedarone hydrochloride
Format: physicochemical
Settings: mono-sodium phosphate buffer (NaH2PO4), aqueous buffer; ambient temperature, pH range from 1.5 to 5; read-out: solubility in the presence of a mono-sodium phosphate buffer (NaH2PO4)
Counter-ions that a name gives are not always drawn.
valueType: solubility

Query block: Would you kindly share the measured solubility for CCCCc1oc2ccc(NS(C)(=O)=O)cc2c1C(=O)c1ccc(OCCCN(CCCC)CCCC)cc1 [dronedarone hydrochloride] ?
Result block: 2 to 2.25 mg/mL

Taken from patent US6939865B2.
